Would you kindly list TGI for each of these compounds?
System: SF-295 CNS
assay_procedure: NCI tumour cell line growth inhibition, 48 h

State its TGI on SF-295 CNS: CC1=NN(c2nc(N)nc(C(C#N)C(=O)c3cc4c(cc3Cl)Sc3nccn3S4(=O)=O)n2)C(C)(C)C1 (configuration not stated) > 100 µM

State its TGI on SF-295 CNS: O=C1C2C(C(=O)N1c1ccccc1)C1(Br)c3ccccc3C2(Br)C2C(=O)N(c3ccccc3)C(=O)C21 (configuration not stated) > 100 µM

State its TGI on SF-295 CNS: O=C1C2c3[nH]c4ccccc4c3C3CCCC3C2C(=O)N1c1ccccc1 (configuration not stated) > 100 µM

State its TGI on SF-295 CNS: Clc1ccc(CSc2ncnc3c2ncn3C2CCCCO2)cc1 (configuration not stated) 36.7 µM

State its TGI on SF-295 CNS: CCN(CC)C(=O)C[n+]1c2ccccc2n2cc(N)ccc21 > 100 µM

State its TGI on SF-295 CNS: C/C1=C\[C@H](C)C[C@H](C)OC(=O)C[C@H](c2ccc(O)cc2)NC(=O)[C@H](Cc2ccc(O)c(I)c2)N(C)C(=O)[C@H](C)NC(=O)[C@@H](C)C1 > 25 µM

State its TGI on SF-295 CNS: CCN(CC)CCOc1ccc(N2C(=O)c3cccc4cc([N+](=O)[O-])cc(c34)C2=O)cc1 21.1 µM

* * *

Tested on: 786-0 renal
assay_procedure: NCI tumour cell line growth inhibition, 48 h
measurement_kind: TGI (µM)
Your answer should be a plain number; it is taken to be in µM.

Quick one: TGI of Cc1ccc([N+](=O)[O-])cc1S(=O)(=O)Nc1ccc(C2=NN(C(=O)c3ccccc3)C(c3ccccc3)C2)cc1 (stereo not given) ? 48.2

Quick one: TGI of COc1ccc2cc1Oc1ccc(cc1)CC1c3cc4c(cc3CCN1C)Oc1c(OC)cc3c(c1O4)C(C2)N(C)CC3 (stereo not given) ? 23

Quick one: TGI of O=C(c1cc(Cl)ccc1Cl)N1CCN(c2cccc(Cl)c2)CC1 ? 34

Quick one: TGI of O=C(Nc1ccc(CN2CCOCC2)cc1)c1ccc(-c2cc(Cl)ccc2Cl)o1 ? 26.1

Quick one: TGI of Clc1ccc(CSc2ncnc3c2ncn3C2CCCCO2)cc1 (stereo not given) ? 56.2

Quick one: TGI of CN1C2CCC1CN(CCOC(c1ccc(F)cc1)c1ccc(F)cc1)C2 ? 40

Quick one: TGI of CN(C)CCC=C1c2ccccc2C=Cc2ccccc21 ? 30.5

Quick one: TGI of C(#Cc1cnccn1)/C=C\C#Cc1cnccn1 ? 29

Quick one: TGI of Nc1nc2c(c3ncccc13)C(c1cccc(Br)c1)Cc1ncccc1-2 (stereo not given) ? 12

Quick one: TGI of Clc1ccccc1/C=C\C1(c2ccccc2)OCCO1 ? 31.1

Quick one: TGI of O=C1/C(=C\c2ccccc2)C2/C(=C\c3ccccc3)C(=O)/C(=C\c3ccccc3)C2/C1=C\c1ccccc1 (stereo not given) ? 2.78

Quick one: TGI of COc1cccc(/C=C2\CCC(CCN(C)C)(C3=CCCC3)C2=O)c1 (stereo not given) ? 27.9

Quick one: TGI of COc1cc(OC)cc(-n2c(N)c(C#N)c3ccc([N+](=O)[O-])cc3c2=O)c1 ? 39.5

* * *

Test system: DU-145 prostate
assay_procedure: NCI tumour cell line growth inhibition, 48 h
measurement_kind: TGI

State its TGI on DU-145 prostate: CN1C2CCC1CN(CCOC(c1ccc(F)cc1)c1ccc(F)cc1)C2 > 100 µM

State its TGI on DU-145 prostate: Cc1cc(C)c(S(=O)(=O)N2CCN(S(=O)(=O)c3c(C)cc(C)cc3C)OCCCCCO2)c(C)c1 > 100 µM

State its TGI on DU-145 prostate: COc1cc(C2SC(N)=Nc3c2c(C)nn3C(=O)c2ccc(Cl)cc2)cc(OC)c1OC (centres undefined) > 10 µM

State its TGI on DU-145 prostate: C1CSCCCSCCCSCCCSCCCSC1 > 100 µM

* * *

Would you kindly list TGI for each of these molecules?
Tested on: TK-10 renal
assay_procedure: NCI tumour cell line growth inhibition, 48 h

Quick one: TGI of COc1ccc(/C=C2\C(=O)N(C(=O)c3ccc(NC(C)=O)cc3)N=C2C)cc1 ? > 100 µM

Quick one: TGI of O=S(=O)(Nc1ccccc1)c1ccc(-c2c3nc(c(-c4ccc(S(=O)(=O)Nc5ccccc5)cc4)c4ccc([nH]4)c(-c4ccc(S(=O)(=O)Nc5ccccc5)cc4)c4nc(c(-c5ccc(S(=O)(=O)Nc6ccccc6)cc5)c5ccc2[nH]5)C=C4)C=C3)cc1 ? > 31.6 µM

Quick one: TGI of COP(=O)(OC)/C(=C/c1c[nH]c2ccccc12)C(=O)O ? > 100 µM

Quick one: TGI of COc1cc2ncn(-c3cc(O[C@H](C)c4ccccc4Cl)c(C(N)=O)s3)c2cc1OC ? 4.45 µM

Quick one: TGI of COC(=O)[C@H](NC(=O)OC(C)(C)C)[C@H]1COC(C)(C)O1 ? > 100 µM

Quick one: TGI of C[N+](C)(CCNC(=O)c1cccc2cc3ccccc3nc12)Cc1ccc([N+](=O)[O-])cc1 ? > 100 µM

Quick one: TGI of COc1cc(C[C@@H](C)N)cc(OC)c1 ? > 100 µM

Quick one: TGI of COc1cc(S(=O)(=O)Nc2nc(-c3ccc(N=Cc4cccs4)cc3)cs2)ccc1Cl ? > 100 µM

Quick one: TGI of CN1C(=O)CC2CCCN2C1=O (stereo not given) ? > 100 µM

Quick one: TGI of CCOC(=O)C(=O)Nc1ccc(C)c(C)c1 ? > 100 µM

* * *

Would you kindly list TGI for each of these compounds?
Test system: SK-MEL-5 melanoma
assay_procedure: NCI tumour cell line growth inhibition, 48 h
*1 amine or outer side, *2 acyl side, *3 side chain or, on linkers, in order; H or OH if unused. Where a SMILES comes first, the peptide text is derived from it. Bridges are numbered along the chain shown (N, C = ends). [ ]: non-standard residue; d: D form. Adda = CO[C@@H](Cc1ccccc1)[C@@H](C)/C=C(C)/C=C/[C@H](N[*:1])[C@H](C)C(=O)[*:2]; dAsp(3S-Me) = C[C@H](C(=O)[*:3])[C@@H](N[*:1])C(=O)[*:2]; d(γGlu) = O=C(O)[C@@H](CCC(=O)[*:2])N[*:1]; NMeDha = C=C(NC)C(=O)O

Quick one: TGI of C=CC1(CC)/C(=N\O)C(CC)(CC)C(=O)N1O (stereo unspecified) ? > 100 µM

Quick one: TGI of Clc1ccc(-c2cc(-c3cc(-c4ccc(Cl)cc4)n[nH]3)[nH]n2)cc1 ? > 100 µM

Quick one: TGI of O=C(O)c1cc(C(=O)O)nc(C(=O)O)c1 ? > 100 µM

Quick one: TGI of C=C1C(=O)N[C@H](C)C(=O)N[C@@H](CC(C)C)C(=O)N[C@@H](C(=O)O)[C@H](C)C(=O)N[C@@H](CCCN=C(N)N)C(=O)N[C@@H](/C=C/C(C)=C/[C@H](C)[C@H](Cc2ccccc2)OC)[C@H](C)C(=O)N[C@@H](C(=O)O)CCC(=O)N1C (R[Adda][d(γGlu)][NMeDha][dA]L[dAsp(3S-Me)]-OH; lactam N-7) ? > 5 µM

Quick one: TGI of COc1cc(OC)cc(-n2c(N)c(C#N)c3ccc([N+](=O)[O-])cc3c2=O)c1 ? > 100 µM

Quick one: TGI of COc1cc(C2SC(N)=Nc3c2c(C)nn3C(=O)c2ccc(Cl)cc2)cc(OC)c1OC (stereo unspecified) ? > 10 µM

* * *

System: 786-0 renal
assay_procedure: NCI tumour cell line growth inhibition, 48 h
*1 amine or outer side, *2 acyl side, *3 side chain or, on linkers, in order; H or OH if unused. Where a SMILES comes first, the peptide text is derived from it. Bridges are numbered along the chain shown (N, C = ends). [ ]: non-standard residue; d: D form. Adda = CO[C@@H](Cc1ccccc1)[C@@H](C)/C=C(C)/C=C/[C@H](N[*:1])[C@H](C)C(=O)[*:2]; dAsp(3S-Me) = C[C@H](C(=O)[*:3])[C@@H](N[*:1])C(=O)[*:2]; d(γGlu) = O=C(O)[C@@H](CCC(=O)[*:2])N[*:1]; NMeDha = C=C(NC)C(=O)O
measurement_kind: TGI

Quick one: TGI of C=C1C(=O)N[C@H](C)C(=O)N[C@@H](CC(C)C)C(=O)N[C@@H](C(=O)O)[C@H](C)C(=O)N[C@@H](CCCN=C(N)N)C(=O)N[C@@H](/C=C/C(C)=C/[C@H](C)[C@H](Cc2ccccc2)OC)[C@H](C)C(=O)N[C@@H](C(=O)O)CCC(=O)N1C (R[Adda][d(γGlu)][NMeDha][dA]L[dAsp(3S-Me)]-OH; lactam N-7) ? > 5 µM

Quick one: TGI of O=C(N/N=C/c1ccccc1O)c1ccccc1O ? > 100 µM

Quick one: TGI of S=C(S)N1CCN(c2cccc(Cl)c2)CC1 ? > 100 µM

Quick one: TGI of O=C1C2C=CC(n3[nH]c(=O)n(Cc4ccccc4)c3=O)CC2C(=O)N1c1cccc(Cl)c1 (configuration not stated) ? > 100 µM

Quick one: TGI of Nc1nc(SCCC/C=C/B(O)O)nc2c1ncn2C1OC(COP(=O)(O)O)C(O)C1O (configuration not stated) ? > 203 µM

Quick one: TGI of COc1cc(C2SC(N)=Nc3c2c(C)nn3C(=O)c2ccc(Cl)cc2)cc(OC)c1OC (configuration not stated) ? > 10 µM

Quick one: TGI of O=c1c2ccc3cccc4c(=O)c5ccc6cccc1c6c5-c2c34 ? > 50 µM

Quick one: TGI of N#C/C(=C\c1ccccc1)c1nc(-c2cc3ccccc3oc2=O)cs1 ? > 100 µM

Quick one: TGI of O=C1C2C(C(=O)N1c1ccccc1)C1(Br)c3ccccc3C2(Br)C2C(=O)N(c3ccccc3)C(=O)C21 (configuration not stated) ? > 31.6 µM

Quick one: TGI of Cn1ncc2[nH]cnc2c1=S ? > 100 µM

Quick one: TGI of C#C[C@]1(O)CC[C@H]2[C@@H]3CCC4=CC(=NCCOC(=O)c5cccc6c(=O)c7ccccc7[nH]c56)CC[C@@H]4[C@H]3CC[C@@]21C ? > 100 µM

Quick one: TGI of CCCc1onc(CCC(=O)N(Cc2ccccc2)Cc2ccccc2)c1CC ? > 100 µM

Quick one: TGI of COC1CC(OC2C(C)OC(OC3C(C)OC(OC4C(C)OC(O[C@H]5CC[C@@]6(C)C(=CC[C@]7(O)[C@@H]6C[C@@H](OC(=O)/C=C(\C)C(C)C)[C@@]6(C)[C@]7(O)CC[C@@]6(O)C(C)=O)C5)CC4OC)CC3OC)CC2OC)OC(C)C1O (some centres not stated) ? > 12.5 µM

Quick one: TGI of CN1CCN(C(=S)N(C(=O)c2cccs2)C2CCCCC2)CC1 ? > 100 µM

Quick one: TGI of Nc1ccc2c(c1)C(=O)N(OS(=O)(=O)c1ccccc1)C2=O ? > 100 µM

Quick one: TGI of COC(=O)[C@H](NC(=O)OC(C)(C)C)[C@H]1COC(C)(C)O1 ? > 100 µM

Quick one: TGI of C#C[C@]1(O)CC[C@H]2[C@@H]3CCC4=CC(=NCCOC(=O)c5cccc6cc7ccccc7nc56)CC[C@@H]4[C@H]3CC[C@@]21C ? > 100 µM
